- System: Staphylococcus aureus
- Test description: Antimicrobial activity against methicillin-resistant Staphylococcus aureus isolate NTUH4722 after 18 to 24 hrs by alamar blue assay
- Format: functional
So basically: is MIC under 2 mg/L? Then TRUE. Not under? Then FALSE.

{"columns": ["Compound", "Study system", "Label class"],
 "data": [
  ["O=C(Nc1cccc(C2=Nc3ccccc3C2)c1)c1ccc([N+](=O)[O-])o1", "Staphylococcus aureus", "TRUE"],
  ["CCC1Sc2ccc(S(=O)(=O)Nc3cc(Cl)ccc3C)cc2NC1=O (stereo not given)", "Staphylococcus aureus", "FALSE"],
  ["O=C(Nc1cc(Cl)cc(C(=O)c2ccc(Cl)cc2)c1Cl)c1cc(Cl)cc(Br)c1O", "Staphylococcus aureus", "TRUE"],
  ["O=C(Nc1ccc(Sc2nc3ccccc3s2)c(Cl)c1)c1cc(Br)cc(Br)c1O", "Staphylococcus aureus", "TRUE"],
  ["O=C(Nc1nnc(-c2ccc(F)cc2)o1)c1cccc(Br)c1", "Staphylococcus aureus", "TRUE"],
  ["CN1C(=O)c2ccccc2Sc2ccc(NC(=O)c3ccc([N+](=O)[O-])o3)cc21", "Staphylococcus aureus", "TRUE"],
  ["COC(=O)c1ccccc1NC(=O)c1ccc([N+](=O)[O-])o1", "Staphylococcus aureus", "FALSE"],
  ["COc1cccc(-c2coc3c(C)c4oc(=O)c(CCC(=O)O)c(C)c4cc23)c1", "Staphylococcus aureus", "FALSE"],
  ["O=C(Nc1ccc(Oc2ccc(Cl)cc2)c(Cl)c1)c1cc(Br)cc(Br)c1O", "Staphylococcus aureus", "TRUE"],
  ["O=C(Nc1cc(S(=O)(=O)c2ccc(Cl)cc2)ccc1Cl)c1cc(I)cc(I)c1O", "Staphylococcus aureus", "TRUE"],
  ["O=C(Nc1ccc(Cl)c(Cl)c1)c1ccc([N+](=O)[O-])o1", "Staphylococcus aureus", "FALSE"],
  ["O=C(CCN1C(=O)c2cccc3cccc(c23)C1=O)N1CCN(C/C=C/c2ccccc2)CC1", "Staphylococcus aureus", "FALSE"],
  ["NC(=O)c1oc2ccccc2c1NC(=O)c1ccc([N+](=O)[O-])o1", "Staphylococcus aureus", "TRUE"],
  ["O=C(Nc1nnc(-c2cccc(Br)c2)o1)c1ccc(F)cc1", "Staphylococcus aureus", "TRUE"],
  ["CC1=CC(NC(=O)C(C)Oc2ccccc2)N(c2nc(C)c(C)c(O)n2)N1 (stereo not given)", "Staphylococcus aureus", "TRUE"],
  ["Cc1c(CC(=O)N2CCC(C(=O)O)CC2)c(=O)oc2c(C)c3occ(-c4ccc(Cl)cc4)c3cc12", "Staphylococcus aureus", "FALSE"],
  ["CCc1cc(O)nc(N2NC(C)=CC2NC(=O)c2ccccc2Cl)n1 (stereo not given)", "Staphylococcus aureus", "TRUE"],
  ["Cc1c(CC(=O)O)c(=O)oc2c(C)c3occ(-c4ccc(Br)cc4)c3cc12", "Staphylococcus aureus", "FALSE"],
  ["Cc1ccc(C)c(C(=O)c2cc(NC(=O)c3cc(Br)cc(Br)c3O)ccc2Oc2ccc(Cl)cc2)c1", "Staphylococcus aureus", "TRUE"],
  ["O=C(Nc1cc(Cl)c(Cl)c(Cl)c1)c1cc(Cl)cc(Cl)c1O", "Staphylococcus aureus", "TRUE"],
  ["O=C(Nc1ccc(Oc2ccc3ccccc3c2Cl)c(Cl)c1)c1cc(Cl)cc(Br)c1O", "Staphylococcus aureus", "TRUE"],
  ["O=C(Nc1ccc(NS(=O)(=O)c2ccc(Cl)cc2)cc1Cl)c1cc(Cl)ccc1O", "Staphylococcus aureus", "TRUE"],
  ["Cc1c(CC(=O)N[C@@H](C(=O)O)c2ccccc2)c(=O)oc2c(C)c3occ(-c4ccc(Cl)cc4)c3cc12", "Staphylococcus aureus", "FALSE"],
  ["CCN1C(=O)/C(=C/c2ccc([N+](=O)[O-])o2)SC1=S", "Staphylococcus aureus", "TRUE"],
  ["Cc1ccc(NS(=O)(=O)c2ccc3c(c2)NC(=O)C(C)S3)c(C)c1 (stereo not given)", "Staphylococcus aureus", "FALSE"],
  ["CCCc1ccc(C)c(Oc2ccc(Cl)cc2NC(=O)c2cc(Cl)cc(Br)c2O)c1", "Staphylococcus aureus", "TRUE"],
  ["Cc1ccc(NS(=O)(=O)c2ccc3c(c2)NCC(C)C(=O)S3)c(Br)c1 (stereo not given)", "Staphylococcus aureus", "FALSE"],
  ["O=C(Nc1cc(Cl)cc(C(=O)c2ccc(Cl)cc2)c1Cl)c1cc(Br)cc(Br)c1O", "Staphylococcus aureus", "FALSE"],
  ["CSC[C@H](NC(=O)Cc1c(C)c2cc3c(-c4ccc(Cl)cc4)coc3c(C)c2oc1=O)C(=O)O", "Staphylococcus aureus", "FALSE"],
  ["Cc1c(CC(=O)N[C@@H](C(=O)O)C(C)C)c(=O)oc2c(C)c3occ(-c4ccc(Cl)cc4)c3cc12", "Staphylococcus aureus", "FALSE"],
  ["O=C(Nc1cc(Cl)c(Cl)c(Cl)c1)c1cc(Br)cc(Br)c1O", "Staphylococcus aureus", "TRUE"],
  ["O=C(c1ccc(Cl)cc1)c1ccc(NC(=O)c2cc(Br)cc(Br)c2O)cc1Cl", "Staphylococcus aureus", "TRUE"],
  ["O=C(Nc1ccc(Oc2ccc3ccccc3c2Cl)c(Cl)c1)c1cc(I)cc(I)c1O", "Staphylococcus aureus", "TRUE"],
  ["O=C(Nc1nnc(-c2ccc(Cl)cc2)o1)c1cccc(C(F)(F)F)c1", "Staphylococcus aureus", "TRUE"]
]}
